Data credit: the supplement of paper PMC11061612

# System: BFTC-905 (Bladder Carcinoma);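 note: after 72 h of two-drug dosing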
# experimental protocol: Bliss excess, mean over the matrix (fraction); higher = more synergy
Could you label it Fulfilled if measured Bliss excess is -0.01 or higher, and Not fulfilled otherwise?

Below, 5 compounds whose answers are already recorded.
[
  {
    "compound": "NC1(C(=O)N[C@@H](CCO)c2ccc(Cl)cc2)CCN(c2ncnc3[nH]ccc23)CC1 [Capivasertib] + Cn1cnc2c(F)c(Nc3ccc(Br)cc3Cl)c(C(=O)NOCCO)cc21 [Selumetinib] (first compound max 10 µM, 7x7, partner max 10 µM)",
    "label value": "Fulfilled"
  },
  {
    "compound": "C[C@@H](c1ccc2nccn2c1)n1nnc2ncc(-c3cnn(C)c3)nc21 [Savolitinib] + CC1(C)CCC(CN2CCN(c3ccc(C(=O)NS(=O)(=O)c4ccc(NCC5CCOCC5)c([N+](=O)[O-])c4)c(Oc4cnc5[nH]ccc5c4)c3)CC2)=C(c2ccc(Cl)cc2)C1 [Venetoclax] (first compound max 1 µM, 7x7, partner max 1 µM)",
    "label value": "Not fulfilled"
  },
  {
    "compound": "CC(=O)Nc1cccc(-n2c(=O)n(C3CC3)c(=O)c3c(Nc4ccc(I)cc4F)n(C)c(=O)c(C)c32)c1 [Trametinib] + Cc1nc(-c2cn3c(n2)-c2ccc(-c4cnn(C(C)(C)C(N)=O)c4)cc2OCC3)n(C(C)C)n1 [Taselisib] (first compound max 1 µM, 7x7, partner max 10 µM)",
    "label value": "Fulfilled"
  },
  {
    "compound": "CN(CCO)CC[C@H](CSc1ccccc1)Nc1ccc(S(=O)(=O)NC(=O)c2ccc(N3CCC([C@@H](O)c4ccccc4-c4ccc(Cl)cc4)CC3)cc2)cc1S(=O)(=O)C(F)(F)F [AZD4320] + C[C@@H](Nc1cc(F)cc(F)c1)c1cc(C(=O)N(C)C)cc2c(=O)cc(N3CCOCC3)oc12 [AZD8186] (first compound max 1 µM, 7x7, partner max 3 µM)",
    "label value": "Not fulfilled"
  },
  {
    "compound": "CN(C)CCCOc1ccc(-c2ccc3ncc4c(c3c2)n(C2CCOCC2)c(=O)n4C)cn1 [AZD0156] + CCN(CCO)CCCOc1ccc2c(Nc3cc(CC(=O)Nc4cccc(F)c4)[nH]n3)ncnc2c1 [AZD2811] (first compound max 1 µM, 7x7, partner max 1 µM)",
    "label value": "Fulfilled"
  }
]

Enquiry: Given the entry C=CCn1c(=O)c2cnc(Nc3ccc(N4CCN(C)CC4)cc3)nc2n1-c1cccc(C(C)(C)O)n1 [AZD1775] + C1CN(CCC1(C(=O)N[C@@H](CCO)C2=CC=C(C=C2)Cl)N)C3=NC=NC4=C3C=CN4 [Capivasertib] (first compound max 3 µM, partner max 3 µM) , answer whether its Bliss excess meets or surpasses -0.01.
Return: Not fulfilled
